Listed next: entries and their corresponding Ki.
target desc: 5-HT2C receptor (Homo sapiens, UniProt P28335)
Construct: expressed in transfected cells; host or cells: Cos-7
Sequence (P28335 33-458): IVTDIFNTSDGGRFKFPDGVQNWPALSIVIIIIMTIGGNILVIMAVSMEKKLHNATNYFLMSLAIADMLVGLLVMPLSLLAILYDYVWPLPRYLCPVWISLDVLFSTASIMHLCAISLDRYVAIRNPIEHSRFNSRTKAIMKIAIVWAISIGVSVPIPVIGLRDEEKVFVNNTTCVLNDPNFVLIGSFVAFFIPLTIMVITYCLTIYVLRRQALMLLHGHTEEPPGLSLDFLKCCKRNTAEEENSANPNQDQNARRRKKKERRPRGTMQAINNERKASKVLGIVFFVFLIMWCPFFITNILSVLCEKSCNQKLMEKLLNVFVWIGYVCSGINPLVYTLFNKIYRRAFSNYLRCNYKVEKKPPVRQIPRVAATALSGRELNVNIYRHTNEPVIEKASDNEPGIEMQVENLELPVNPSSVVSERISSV
assay notes: 5-HT2C receptor binding, [3H]mesulergine competition (counter screen)
condition label: read-out: Receptor Affinity: pK Values 5NT2C receptor (converted)
measured parameter: Ki (nM)

molecule_smiles=CCOc1ccc2c(c1)Nc1ccccc1C2=C1CCN(C)CC1 measured_parameter=Ki observed=37.2
molecule_smiles=CCOc1ccc2c(c1)Sc1cccc(OC)c1C2=C1CCN(C)CC1 measured_parameter=Ki observed=17
molecule_smiles=COc1cccc2c1C(=C1CCN(C)CC1)c1ccc(C(C)C)cc1S2 measured_parameter=Ki observed=16.2
molecule_smiles=COc1ccc2c(c1)Sc1cccc(OC)c1C2=C1CCN(C)CC1 measured_parameter=Ki observed=1.55
molecule_smiles=CCOc1ccc2c(c1)Sc1cccc(O)c1C2=C1CCN(C)CC1 measured_parameter=Ki observed=13.8
molecule_smiles=CC(C)c1ccc2c(c1)Sc1cccc(O)c1C2=C1CCN(C)CC1 measured_parameter=Ki observed=30.2

###

target desc: 5-HT2A receptor (Homo sapiens, UniProt P28223)
Construct: expressed in transfected cells; host or cells: HEK293
Sequence (P28223 whole entry): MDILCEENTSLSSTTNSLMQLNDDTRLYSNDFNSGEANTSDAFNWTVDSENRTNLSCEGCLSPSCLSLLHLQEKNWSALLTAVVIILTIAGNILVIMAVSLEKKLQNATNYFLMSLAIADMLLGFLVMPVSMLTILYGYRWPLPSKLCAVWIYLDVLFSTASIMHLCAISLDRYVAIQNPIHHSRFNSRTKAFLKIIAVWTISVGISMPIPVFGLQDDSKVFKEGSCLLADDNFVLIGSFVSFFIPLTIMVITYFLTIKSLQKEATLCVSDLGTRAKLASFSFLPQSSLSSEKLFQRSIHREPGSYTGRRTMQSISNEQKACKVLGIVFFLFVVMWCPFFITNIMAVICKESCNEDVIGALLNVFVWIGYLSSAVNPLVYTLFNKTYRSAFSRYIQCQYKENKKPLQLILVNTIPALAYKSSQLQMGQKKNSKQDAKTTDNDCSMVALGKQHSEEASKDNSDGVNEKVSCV
assay notes: 5-HT2A receptor binding, [3H]ketanserin competition (counter screen)
condition label: read-out: Receptor Affinity: pK Values 5-HT2A receptor (converted)
So basically, if Ki comes in under 0.7 nM it's yes, and if it's 0.7 nM or more it's no.

molecule_smiles=CCOc1ccc2c(c1)Nc1ccccc1C2=C1CCN(C)CC1 target_desc="5-HT2A receptor (Homo sapiens, UniProt P28223)" category=no
molecule_smiles=COc1ccc2c(c1)Sc1cccc(OC)c1C2=C1CCN(C)CC1 target_desc="5-HT2A receptor (Homo sapiens, UniProt P28223)" category=yes
molecule_smiles=CCOc1ccc2c(c1)Sc1cccc(OC)c1C2=C1CCN(C)CC1 target_desc="5-HT2A receptor (Homo sapiens, UniProt P28223)" category=no
molecule_smiles=COc1cccc2c1C(=C1CCN(C)CC1)c1ccc(C(C)C)cc1S2 target_desc="5-HT2A receptor (Homo sapiens, UniProt P28223)" category=no
molecule_smiles=CC(C)c1ccc2c(c1)Sc1cccc(O)c1C2=C1CCN(C)CC1 target_desc="5-HT2A receptor (Homo sapiens, UniProt P28223)" category=no
molecule_smiles=CCOc1ccc2c(c1)Sc1cccc(O)c1C2=C1CCN(C)CC1 target_desc="5-HT2A receptor (Homo sapiens, UniProt P28223)" category=no

###

Listed next: entries and their corresponding log10 of Ki.
target desc: human H1 receptor (Homo sapiens)
Construct: expressed in transfected cells; host or cells: COS-7 (transient)
Sequence (P35367 whole entry): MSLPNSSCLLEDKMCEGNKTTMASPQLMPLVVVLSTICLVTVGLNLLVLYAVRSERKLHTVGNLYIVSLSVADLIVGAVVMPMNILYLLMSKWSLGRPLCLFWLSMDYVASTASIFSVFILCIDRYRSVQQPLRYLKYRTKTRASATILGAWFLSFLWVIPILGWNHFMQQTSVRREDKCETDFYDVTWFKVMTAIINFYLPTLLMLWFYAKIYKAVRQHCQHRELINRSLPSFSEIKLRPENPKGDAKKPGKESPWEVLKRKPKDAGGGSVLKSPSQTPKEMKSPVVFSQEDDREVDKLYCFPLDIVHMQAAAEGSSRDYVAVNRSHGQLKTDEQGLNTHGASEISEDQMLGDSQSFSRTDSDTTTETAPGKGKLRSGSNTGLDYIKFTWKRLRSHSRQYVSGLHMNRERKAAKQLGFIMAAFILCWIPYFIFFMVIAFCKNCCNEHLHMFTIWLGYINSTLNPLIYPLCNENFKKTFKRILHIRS
assay notes: Cloned human H1 receptor binding assay, [3H]-mepyramine
condition label: COS-7 cells transfected with human H1 receptor, read-out: Receptor Affinity: pK Values H1 receptor (converted)
measured parameter: log10 of Ki (log10 of the value in µM)

molecule_smiles=CC(C)c1ccc2c(c1)Sc1cccc(O)c1C2=C1CCN(C)CC1 observed=-1.45
molecule_smiles=COc1cccc2c1C(=C1CCN(C)CC1)c1ccc(C(C)C)cc1S2 observed=-1.98
molecule_smiles=COc1ccc2c(c1)Sc1cccc(OC)c1C2=C1CCN(C)CC1 observed=-3.89
molecule_smiles=CCOc1ccc2c(c1)Sc1cccc(O)c1C2=C1CCN(C)CC1 observed=-1.44
molecule_smiles=CCOc1ccc2c(c1)Sc1cccc(OC)c1C2=C1CCN(C)CC1 observed=-2.43
molecule_smiles=CCOc1ccc2c(c1)Nc1ccccc1C2=C1CCN(C)CC1 observed=-1.53

###

Listed next: entries and their corresponding Ki.
target desc: human 5-HT2B receptor (Homo sapiens)
Construct: expressed in transfected cells; host or cells: HEK 293 (transient)
Sequence (P41595 whole entry): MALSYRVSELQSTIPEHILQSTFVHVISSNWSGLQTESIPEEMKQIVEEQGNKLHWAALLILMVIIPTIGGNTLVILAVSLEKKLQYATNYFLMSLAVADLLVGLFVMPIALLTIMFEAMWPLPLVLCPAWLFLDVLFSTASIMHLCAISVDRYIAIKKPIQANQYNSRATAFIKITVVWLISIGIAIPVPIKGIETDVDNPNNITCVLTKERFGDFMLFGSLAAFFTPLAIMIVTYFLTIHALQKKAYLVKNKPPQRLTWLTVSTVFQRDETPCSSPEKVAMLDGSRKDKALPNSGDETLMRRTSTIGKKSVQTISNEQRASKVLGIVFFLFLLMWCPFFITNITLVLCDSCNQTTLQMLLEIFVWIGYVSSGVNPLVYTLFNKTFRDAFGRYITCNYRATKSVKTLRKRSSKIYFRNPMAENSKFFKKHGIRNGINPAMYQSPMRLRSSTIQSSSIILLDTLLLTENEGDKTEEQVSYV
assay notes: Cloned human 5-HT2B receptor binding assay, [3H]-5HT
condition label: HEK 293 cells transfected with human 5-HT2B receptor, read-out: Receptor Affinity: pK Values 5HT2B receptor (converted)
measured parameter: Ki

molecule_smiles=CCOc1ccc2c(c1)Sc1cccc(OC)c1C2=C1CCN(C)CC1 measured_parameter=Ki observed="0.0447 nM"
molecule_smiles=COc1ccc2c(c1)Sc1cccc(OC)c1C2=C1CCN(C)CC1 measured_parameter=Ki observed="0.00871 nM"
molecule_smiles=CCOc1ccc2c(c1)Sc1cccc(O)c1C2=C1CCN(C)CC1 measured_parameter=Ki observed="0.0115 nM"
molecule_smiles=CCOc1ccc2c(c1)Nc1ccccc1C2=C1CCN(C)CC1 measured_parameter=Ki observed="0.741 nM"
molecule_smiles=COc1cccc2c1C(=C1CCN(C)CC1)c1ccc(C(C)C)cc1S2 measured_parameter=Ki observed="0.17 nM"
molecule_smiles=CC(C)c1ccc2c(c1)Sc1cccc(O)c1C2=C1CCN(C)CC1 measured_parameter=Ki observed="0.12 nM"
